# testedSystem: CDK5/p25 (Homo sapiens, UniProt Q00535)
# Sequence (Q00535 whole entry, species assumed): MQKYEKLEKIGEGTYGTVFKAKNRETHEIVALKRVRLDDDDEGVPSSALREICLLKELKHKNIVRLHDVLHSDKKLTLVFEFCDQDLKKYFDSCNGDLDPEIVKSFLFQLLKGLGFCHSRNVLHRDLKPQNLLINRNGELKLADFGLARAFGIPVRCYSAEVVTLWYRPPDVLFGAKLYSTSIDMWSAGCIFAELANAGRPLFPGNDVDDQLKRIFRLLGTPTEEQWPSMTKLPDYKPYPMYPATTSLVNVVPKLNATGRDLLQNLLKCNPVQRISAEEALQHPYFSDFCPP
# Sequence (Q15078 99-307 partner limits assumed, species assumed): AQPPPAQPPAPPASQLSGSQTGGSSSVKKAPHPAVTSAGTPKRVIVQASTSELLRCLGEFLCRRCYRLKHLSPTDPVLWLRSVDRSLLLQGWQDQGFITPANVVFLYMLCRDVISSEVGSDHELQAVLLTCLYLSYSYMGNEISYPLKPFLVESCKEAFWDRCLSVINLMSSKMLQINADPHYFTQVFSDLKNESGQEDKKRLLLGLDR
# experimentSummary: CDK5/p25 kinase assay (histone H1, 15 μM ATP)
# Type: biochemical, mammalian
# settings: Table 1
measureName: IC50

Some solved entries appear below for comparison.
molecule: Cn1c(-c2ccccc2)cc2nccnc21 [48 (RP22)]
IC50: 7 µM
//
molecule: CN(C)c1ccc(-c2cc3nccnc3[nH]2)cc1 [26 (RP129)]
IC50: > 100 µM
//
molecule: COc1ccc(-c2c(C)c3nccnc3n2C2CCCCC2)cc1 [46 (RP98)]
IC50: > 100 µM
//
molecule: Cc1c(-c2ccc(Cl)cc2)n(C2CCCCC2)c2nccnc12 [47 (RP99)]
IC50: > 100 µM

Report IC50 for COc1ccc(-c2cc3nccnc3[nH]2)cc1 [14 (RP11)] tested on CDK5/p25 (Homo sapiens, UniProt Q00535).
4 µM
